System: γ-secretase (Homo sapiens, UniProt P49768) | Read-out: Ki
Reported property: Ki (nM)

Compound structure string	Tgt	Recorded measurement
CC(C)[C@H](O)C(=O)N[C@@H](C)C(=O)N[C@@H]1C(=O)N(C)CCc2ccccc21	γ-secretase (Homo sapiens, UniProt P49768)	13.6
CC(C)[C@H](O)C(=O)N[C@@H](C)C(=O)N[C@@H]1C(=O)N(C)CCc2ccc(I)cc21	γ-secretase (Homo sapiens, UniProt P49768)	4.3

---

# Tgt: UniProt P49768
pIC50: −log10 of the molar value.
Below is a list of entries, each paired with its recorded pIC50 value.

Compound structure string	pIC50
CC(C)[C@H](O)C(=O)N[C@@H](C)C(=O)N[C@@H]1C(=O)N(C)CCc2ccc(I)cc21	8.46
CC(C)[C@H](O)C(=O)N[C@@H](C)C(=O)N[C@@H]1C(=O)N(C)CCc2ccccc21	7.79
